assay: Inhibition of Rickettsia prowazekii Methionine aminopeptidase 1; assay type: single protein
assay.endpoint: IC50 (µM)
Write the number in µM without appending the unit.

Look up IC50 for this molecule: `CCn1c(CN2CCN(Cc3ccccc3)CC2)nc2cc(NC(=O)c3cccs3)ccc21`
9

Look up IC50 for this molecule: O=C(NC(c1ccccc1)c1ccc2cccnc2c1O)c1ccccc1 (centres undefined)
12

Look up IC50 for this molecule: `COc1ccc(-c2c(C)nn3c(N)c(C#N)cnc23)cc1OC`
9

Look up IC50 for this molecule: CSC1=N/C(=N\c2c(C)cccc2C)C2(CCC(C(C)(C)C)CC2)N1c1ccc(Cl)cc1 (centres undefined)
9

The origin of these recorded values is ChEMBL document CHEMBL5257084.
